Here's a batch of compounds along with measured IC50 for Vascular endothelial growth factor receptor 2 (Homo sapiens).
The figure you give is taken to be in nM; do not add the unit.

Incoming: I have this compound here, `COc1ccc(CN2C3CC2CN(c2ccc(-c4cc(NCC(C)(C)O)cn5ncc(C#N)c45)cn2)C3)cn1` , and I need its recorded IC50.
Outgoing: 51.9

Incoming: Try this compound too: `COc1ccc(CN2C3CC2CN(c2ccc(-c4cc(N5CCP(C)(=O)CC5)cn5ncc(C#N)c45)cn2)C3)cn1`
Outgoing: 340

* * *

assay_target: Vascular endothelial growth factor receptor 2 (Homo sapiens)
Sequence (P35968 whole entry): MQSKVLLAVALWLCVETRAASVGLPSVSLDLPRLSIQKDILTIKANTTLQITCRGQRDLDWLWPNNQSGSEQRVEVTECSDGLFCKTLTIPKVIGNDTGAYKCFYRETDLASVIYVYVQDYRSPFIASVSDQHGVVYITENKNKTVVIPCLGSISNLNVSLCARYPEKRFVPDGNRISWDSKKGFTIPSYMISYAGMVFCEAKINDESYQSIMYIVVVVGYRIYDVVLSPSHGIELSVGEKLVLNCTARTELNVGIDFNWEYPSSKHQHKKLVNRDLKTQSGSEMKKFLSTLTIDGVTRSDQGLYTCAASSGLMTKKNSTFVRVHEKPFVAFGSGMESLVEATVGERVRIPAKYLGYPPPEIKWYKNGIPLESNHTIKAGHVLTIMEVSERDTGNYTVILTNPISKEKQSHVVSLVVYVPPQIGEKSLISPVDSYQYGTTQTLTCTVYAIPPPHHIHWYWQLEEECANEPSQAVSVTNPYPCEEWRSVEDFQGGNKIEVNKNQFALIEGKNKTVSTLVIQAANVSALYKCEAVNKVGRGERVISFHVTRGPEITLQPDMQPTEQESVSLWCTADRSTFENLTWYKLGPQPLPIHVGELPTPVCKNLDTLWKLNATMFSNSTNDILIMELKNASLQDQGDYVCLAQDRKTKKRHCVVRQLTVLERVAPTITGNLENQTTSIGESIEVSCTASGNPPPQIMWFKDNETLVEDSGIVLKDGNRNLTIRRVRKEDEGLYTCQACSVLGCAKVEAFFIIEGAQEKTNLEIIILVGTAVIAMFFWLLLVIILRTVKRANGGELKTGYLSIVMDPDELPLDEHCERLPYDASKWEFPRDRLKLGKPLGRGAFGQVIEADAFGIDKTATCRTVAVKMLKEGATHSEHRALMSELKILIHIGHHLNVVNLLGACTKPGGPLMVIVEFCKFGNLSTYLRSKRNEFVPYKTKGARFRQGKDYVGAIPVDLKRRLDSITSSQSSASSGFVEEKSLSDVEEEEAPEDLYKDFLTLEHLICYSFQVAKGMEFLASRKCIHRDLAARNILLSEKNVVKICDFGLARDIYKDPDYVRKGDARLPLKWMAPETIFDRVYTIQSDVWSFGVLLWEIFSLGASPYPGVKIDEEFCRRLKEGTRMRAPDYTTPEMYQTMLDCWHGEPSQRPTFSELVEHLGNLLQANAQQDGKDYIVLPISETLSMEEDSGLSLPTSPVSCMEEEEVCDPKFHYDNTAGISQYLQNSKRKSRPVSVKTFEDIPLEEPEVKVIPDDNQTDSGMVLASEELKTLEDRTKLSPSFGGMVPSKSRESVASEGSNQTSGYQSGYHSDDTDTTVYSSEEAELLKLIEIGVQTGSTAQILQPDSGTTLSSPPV
Strictly below 200 nM in IC50: Met. Otherwise: Not met.

compound	label_class
COc1ccc(CN2C3CC2CN(c2ccc(-c4cc(N5CCN(C)CC5)cn5ncc(C#N)c45)cn2)C3)cn1 [US20230322769, Compound 94]	Met
COc1ccc(CN2C3CC2CN(c2ccc(-c4cc(N5CC6CC(C5)N6C)cn5ncc(C#N)c45)cn2)C3)cn1 [US20230322769, Compound 17]	Not met
COc1ccc(CN2C3CC2CN(c2ccc(-c4cc(N(CC5CC5)CC(C)(C)O)cn5ncc(C#N)c45)cn2)C3)cn1 [US20230322769, Compound 81]	Not met

Incoming: Field: below-cutoff. Rule: recorded IC50 strictly less than 200 nM. Subject: COc1ccc(CN2C3CC2CN(c2ccc(-c4cc(N5CC6CC(C5)N6)cn5ncc(C#N)c45)cn2)C3)cn1 [US20230322769, Compound 16]
Outgoing: Not met

Incoming: What would you report for COc1ccc(C(=O)N2CCN(c3ccc(-c4cc(-c5cc6n(n5)CCC6)cn5ncc(C#N)c45)cn3)CC2)cn1 [US20230322769, Compound 68] ?
Outgoing: Met

Incoming: Another: COc1ccc(CN2C3CC2CN(c2ccc(-c4cc(N5CC6(COC6)C5)cn5ncc(C#N)c45)cn2)C3)cn1 [US20230322769, Compound 88]
Outgoing: Met

From: BindingDB's records for patent US20230322769
